Could you please report measured Plant response rating, Barnyardgrass for the items listed next?
Tested on: barnyardgrass (Echinochloa crus-galli)
Assay: Test B flooded paddy test, plant response rating 0-100
Format: in vivo
Settings: Flood, 250 g ai/ha; scale 0 to 100 (0 no effect, 100 complete control); 13 to 15 days
Reply with the value as a number alone.

Input: Quick one: give measured Plant response rating, Barnyardgrass for N=C(c1ccccc1)c1c[nH]nc1-c1cc(F)cc(F)c1
Output: 0

Input: Quick one: give measured Plant response rating, Barnyardgrass for O=C(c1ccccc1)c1cn(CO)nc1-c1cc(Cl)cc(Cl)c1
Output: 0

Input: Quick one: give measured Plant response rating, Barnyardgrass for Fc1ccccc1NN=C(c1ccccc1)c1c[nH]nc1-c1cc(Cl)cc(Cl)c1
Output: 0
